target: Human Factor XIIa (hFXIIa) (Homo sapiens); construct: purchased Enzyme Research Laboratories; assay: Determination of Human Factor XIIa (hFXIIa) inhibition, fluorogenic substrate IC50 assay; assay type: biochemical; conditions: fluorogenic substrate H-DPro-Phe-Arg-AFC at Km, 25° C., read-out: Human FXIIa IC50
measure.name: IC50

Need IC50 of `COCc1nn(-c2cccc(C#N)c2C)c2c1CCN(c1ccc3c(c1)C(=O)N(C)CC3)C2=O` , thanks.
10000 to 40000 nM

Need IC50 of `Cc1cc(CNC(=O)c2nn(-c3cccc(Cl)c3)c3c2CCN(c2ccc4c(c2)C(=O)N(CCO)CCC4)C3=O)nn1C` , thanks.
10 to 100 nM

====

Biological target: Human Factor XIIa (hFXIIa) (Homo sapiens, UniProt P00748)
Sequence (P00748 373-615 limits assumed): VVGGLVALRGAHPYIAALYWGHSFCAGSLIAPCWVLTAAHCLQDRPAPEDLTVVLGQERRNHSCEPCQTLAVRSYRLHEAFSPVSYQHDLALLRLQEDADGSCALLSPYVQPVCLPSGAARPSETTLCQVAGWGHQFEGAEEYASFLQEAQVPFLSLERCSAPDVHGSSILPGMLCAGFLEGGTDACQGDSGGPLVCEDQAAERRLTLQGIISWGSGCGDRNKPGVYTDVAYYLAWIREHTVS
Sequence (P00748 20-372 partner limits assumed): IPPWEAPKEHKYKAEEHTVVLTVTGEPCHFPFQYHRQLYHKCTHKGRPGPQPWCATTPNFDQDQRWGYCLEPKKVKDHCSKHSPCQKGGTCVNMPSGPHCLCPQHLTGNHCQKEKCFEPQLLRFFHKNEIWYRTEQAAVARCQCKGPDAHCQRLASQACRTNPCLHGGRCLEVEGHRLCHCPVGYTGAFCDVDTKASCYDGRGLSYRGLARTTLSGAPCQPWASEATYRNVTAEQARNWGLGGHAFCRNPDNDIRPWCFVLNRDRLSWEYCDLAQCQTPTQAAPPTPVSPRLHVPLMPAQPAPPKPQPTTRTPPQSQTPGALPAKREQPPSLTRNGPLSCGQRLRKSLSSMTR
pIC50: −log10 of the molar value.
Readings of pIC50 for the listed molecules

Worked examples follow.
CCCN1CCc2ccc(N3CCc4c(C(=O)NCc5cnccc5C)nn(-c5cccc(Cl)c5)c4C3=O)cc2C1=O = 6.52 to 7.00
Cc1cc(CNC(=O)c2nn(-c3cccc(Cl)c3)c3c2CCN(c2cc4c(nn2)CCN(CCO)C4)C3=O)nn1C = 6.52 to 7.00
Cc1cccnc1CNC(=O)c1nn(-c2cccc(Cl)c2)c2c1CCN(c1ccc3c(c1)C(=O)N(C)CC3)C2=O = 6.00 to 6.52

Read the next record carefully.
Need pIC50 of `CCNC(=O)c1nn(-c2cccc(Cl)c2C)c2c1CCN(c1ccc3c(c1)C(=O)N(C)CC3)C2=O` , thanks.
5.52 to 6.00

====

molecular target: FXa (Homo sapiens, UniProt P00742); assay: Related protease inhibition: FXa, fluorogenic substrate; assay type: biochemical; conditions: fluorogenic substrate at Km, 25° C.; H1-H3 = % activity at 40 μM; read-out: IC50 (human FXa) nM
Sequence (P00742 235-488 limits assumed): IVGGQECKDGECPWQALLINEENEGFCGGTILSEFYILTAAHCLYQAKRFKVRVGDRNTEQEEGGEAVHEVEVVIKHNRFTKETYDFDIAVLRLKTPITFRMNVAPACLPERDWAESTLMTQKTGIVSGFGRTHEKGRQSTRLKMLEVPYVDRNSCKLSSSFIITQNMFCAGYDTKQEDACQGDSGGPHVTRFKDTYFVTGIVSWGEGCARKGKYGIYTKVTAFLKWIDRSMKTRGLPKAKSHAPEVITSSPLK
Sequence (P00742 41-179 partner limits assumed): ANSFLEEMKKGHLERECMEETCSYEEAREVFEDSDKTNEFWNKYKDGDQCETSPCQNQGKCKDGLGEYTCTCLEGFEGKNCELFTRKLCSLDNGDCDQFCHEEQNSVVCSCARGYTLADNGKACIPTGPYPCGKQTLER
measure.name: activity at 40 µM

Worked examples follow.
CN1CCc2ccc(N3CCc4c(C(=O)N[C@@H](CO)C5CC5)nn(-c5cccc(Cl)c5F)c4C3=O)cc2C1=O = 20 to 80%
CCNC(=O)c1nn(-c2cc(C)cs2)c2c1CCN(c1ccc3c(c1)C(=O)N(C)CC3)C2=O = 20 to 80%
CCNC(=O)c1nn(-c2ccc(Cl)c(C)c2)c2c1CCN(c1ccc3c(c1)C(=O)N(C)CC3)C2=O = 20 to 80%
CN1CCc2ccc(N3CCc4cnn(-c5cc(Cl)cc(CN)c5)c4C3=O)cc2C1=O = > 80%
CN1CCc2ccc(N3CCc4c(C(=O)NCC5(O)CC5)nn(-c5cccc(Cl)c5)c4C3=O)cc2C1=O = > 80%
COCc1nn(-c2cccc(C#N)c2C)c2c1CCN(c1ccc3c(c1)C(=O)N(C)CC3)C2=O = > 80%

Read the next record carefully.
Need activity at 40 µM of `CN1CCOc2ccc(N3CCc4c(C(=O)NCC5CC5)nn(-c5cccc(Cl)c5F)c4C3=O)cc2C1=O` , thanks.
> 80%

====

target: Thrombin (Homo sapiens, UniProt P00734); assay: Related protease inhibition: Thrombin, fluorogenic substrate; type: biochemical; settings: fluorogenic substrate at Km, 25° C.; H1-H3 = % activity at 40 μM; read-out: IC50 (human thrombin) nM
measure.name: activity at 40 µM

Worked examples follow.
CN1CCOc2ccc(N3CCc4c(C(=O)NC56CC(O)(C5)C6)nn(-c5cccc(Cl)c5F)c4C3=O)cc2C1=O = 20 to 80%
CCNC(=O)c1nn(-c2cccc(Cl)c2)c2c1CCN(c1cccc(N3C4CCC3CN(C)C4)c1)C2=O = > 80%
CCNC(=O)c1nn(-c2cccc(Cl)c2)c2c1CCN(c1cccc(N3CCC4(CC4)C3)c1)C2=O = > 80%
CCNC(=O)c1nn(-c2cccc(Cl)c2)c2c1CCN(c1cc3c(cn1)OCCN(C)C3=O)C2=O = > 80%
CCNC(=O)c1nn(-c2cccc(Cl)c2)c2c1CCN(c1cccc(N3CCOCC3=O)c1)C2=O = 20 to 80%

Identify the measured activity at 40 µM of `CN1CCc2ccc(N3CCc4c(C(=O)N[C@H](CO)C5CC5)nn(-c5cccc(Cl)c5)c4C3=O)cc2C1=O` for Thrombin (Homo sapiens, UniProt P00734).
20 to 80%

Identify the measured activity at 40 µM of `CCNC(=O)c1nn(-c2cccc(Cl)c2)c2c1CCN(c1cc3c(cc1F)OCCN(C)C3=O)C2=O` for Thrombin (Homo sapiens, UniProt P00734).
> 80%

====

biological target: Human Factor XIIa (hFXIIa) (Homo sapiens, UniProt P00748)
pIC50: −log10 of the molar value.
measure.name: pIC50

Worked examples follow.
CCNC(=O)c1nn(-c2cc(C)cc(CN)c2)c2c1CCN(c1ccc3c(c1)C(=O)N(C)CC3)C2=O = 7.00 to 8.00
Cc1cncc(CNC(=O)c2nn(-c3cccc(Cl)c3)c3c2CCN(c2ccc4c(c2)CN(CCO)CC4)C3=O)c1 = 7.00 to 8.00

Identify the measured pIC50 of `O=C(O)CN1CCc2ccc(N3CCc4c(C(=O)NCC5CC5)nn(-c5cccc(Cl)c5)c4C3=O)cc2C1` for Human Factor XIIa (hFXIIa) (Homo sapiens, UniProt P00748).
5.52 to 6.00

Identify the measured pIC50 of CCNC(=O)c1nn(-c2cccc(Cl)c2)c2c1CCN(c1cc(N3C(=O)CC4CC43)ccc1F)C2=O (stereo not shown) for Human Factor XIIa (hFXIIa) (Homo sapiens, UniProt P00748).
6.00 to 6.52

====

So I've got IC50 readings for FXa (Homo sapiens, UniProt P00742), take a look.

O=C(NCc1cccnn1)c1nn(-c2cccc(Cl)c2)c2c1CCN(c1ccc3c(c1)CN(CCO)CC3)C2=O = > 40 µM
CC1(C)OCCC1NC(=O)c1nn(-c2cccc(Cl)c2)c2c1CCN(c1ccc3c(c1)CN(CCO)CC3)C2=O (stereo not shown) = > 40 µM
O=C(NCc1cc(C2CC2)n[nH]1)c1nn(-c2cccc(Cl)c2)c2c1CCN(c1ccc3c(c1)CN(CCO)CC3)C2=O = 10 to 40 µM

Read the next record carefully.
Identify the measured IC50 of `CCN1CCc2ccc(N3CCc4c(C(=O)NC5CCOCC5)nn(-c5cccc(Cl)c5)c4C3=O)cc2C1` for FXa (Homo sapiens, UniProt P00742).
> 40 µM

====

biological target: Human Factor XIIa (hFXIIa) (Homo sapiens); construct: purchased Enzyme Research Laboratories; assay: Determination of Human Factor XIIa (hFXIIa) inhibition, fluorogenic substrate IC50 assay; assay type: biochemical; conditions: fluorogenic substrate H-DPro-Phe-Arg-AFC at Km, 25° C., read-out: Human FXIIa IC50
measure.name: IC50

CCNC(=O)c1nn(-c2cccc(Cl)c2)c2c1CCN(c1cccc(-n3ccn(C)c3=O)c1)C2=O [Example 1399] = 1000 to 3000 nM
CN1CCc2ccc(N3CCc4c(C(=O)NC5COC5)nn(-c5cccc(Cl)c5)c4C3=O)cc2C1=O [Example 1342] = 300 to 1000 nM
Cc1cc(CNC(=O)c2nn(-c3cccc(Cl)c3)c3c2CCN(c2ccc4c(c2)C(=O)N(CCO)CC4)C3=O)n[nH]1 [Example 1255] = 100 to 300 nM
Cc1cc(CNC(=O)c2nn(-c3cccc(Cl)c3)c3c2CCN(c2ccc4c(c2)C(=O)N(CC(N)=O)CC4)C3=O)n[nH]1 [Example 1321] = 10 to 100 nM
CN1CCc2ccc(N3CCc4c(C(=O)NCC(=O)O)nn(-c5cc(Cl)cc(CN)c5)c4C3=O)cc2C1=O [Example 2056] = 10 to 100 nM

Need IC50 of C[C@H](NC(=O)c1nn(-c2cccc(Cl)c2)c2c1CCN(c1ccc3c(c1)C(=O)N(C)CC3)C2=O)c1cccnc1 [Example 1215] , thanks.
100 to 300 nM

Need IC50 of Cc1cn(C)nc1CNC(=O)c1nn(-c2cccc(Cl)c2)c2c(=O)n(-c3ccc4c(c3)CN(C)CC4)c(C)nc12 [Example 3006] , thanks.
10 to 100 nM

Need IC50 of Cc1noc(C)c1CNC(=O)c1nn(-c2cccc(Cl)c2)c2c1CCN(c1ccc3c(c1)C(=O)N(C)CC3)C2=O [Example 1185] , thanks.
300 to 1000 nM

Need IC50 of CN1CCc2ccc(N3CCc4c(C(=O)N[C@@H](CO)C5CC5)nn(-c5cccc(Cl)c5)c4C3=O)cc2C1=O [Example 1404] , thanks.
100 to 300 nM

Need IC50 of CCN1CCc2cnc(N3CCc4c(C(=O)NCC5CC5)nn(-c5cccc(Cl)c5)c4C3=O)cc2C1 [Example 1117] , thanks.
100 to 300 nM
